We begin with a simple list: items and their reported melting point.
MEASUREMENT_TYPE: melting point

>>> recorded_measurement("Cc1cc2cc(CN3CCCC3)cnc2cc1NC(=O)c1ccc(-c2ccco2)cc1 [Example 224]")
"154 °C"
>>> recorded_measurement("O=C(Nc1ccc2cc(CN3CCCCCC3)cnc2c1)c1ccc(-c2ccc(Cl)cc2)nc1 [Example 32]")
"233 °C (dec.)"
>>> recorded_measurement("CNC(=O)CC1CCN(Cc2cnc3cc(NC(=O)c4ccc(-c5ccc(F)cc5)cc4)c(C)cc3c2)CC1 [Example 269]")
"243 °C"
>>> recorded_measurement("Cc1cc2cc(CN3CCC(CCCC(=O)N(C)C)CC3)cnc2cc1NC(=O)c1ccc(-c2ccc(F)cc2)cc1 [Example 262]")
"194 °C"
>>> recorded_measurement("Cc1c(NC(=O)c2ccc(-c3ccc(F)cc3F)cc2F)ccc2cc(CN3CCCC3)cnc12 [Example 139]")
"172 to 173 °C"
>>> recorded_measurement("Cc1ccc(-c2ccc(C(=O)Nc3ccc4cc(CN5CCC(C(N)=O)CC5)cnc4c3C)cc2)cc1 [Example 26]")
"287 °C (dec.)"
>>> recorded_measurement("CCN(CC)C(=O)C1CCN(Cc2cnc3cc(NC(=O)c4ccc(-c5ccc(F)cc5)cc4)c(C)cc3c2)CC1 [Example 272]")
"203 °C"
>>> recorded_measurement("O=C(Nc1ccc2cc(CN3CCCC3)cnc2c1F)c1ccc(-c2ccccc2)cc1 [Example 71]")
"186 to 188 °C"
>>> recorded_measurement("O=C(Nc1cc2ncc(CN3CCCC3)cc2cc1Cl)c1ccc(-c2ccc(Cl)s2)cc1 [Example 69]")
"185 °C"
>>> recorded_measurement("Cc1ccc(-c2ccc(C(=O)Nc3cc4ncc(CN5CCCC5)cc4cc3F)c(F)c2)cc1 [Example 61]")
"179 to 181 °C"
>>> recorded_measurement("Cc1c(NC(=O)c2ccc(-c3ccc(F)cc3)c(F)c2)ccc2cc(CN3CCCCCC3)cnc12 (hydrate or solvate) [Example 189]")
"162 to 163 °C"
>>> recorded_measurement("Cc1c(NC(=O)c2ccc(-c3ccc(F)cc3)cc2)ccc2cc(CN(C(C)C)C(C)C)cnc12 [Example 194]")
"179 to 180 °C"
>>> recorded_measurement("Cc1cc2cc(CN3CCOCC3)cnc2cc1NC(=O)c1ccc(-c2ccc(F)cc2)cc1 [Example 252]")
"153 to 158 °C"
>>> recorded_measurement("CCN(CC)C(=O)CCC1CCN(Cc2cnc3cc(NC(=O)c4ccc(-c5ccc(F)cc5)cc4)c(C)cc3c2)CC1 [Example 257]")
"150 to 154 °C"

----------
MEASUREMENT_TYPE: melting point

>>> recorded_measurement("Cc1c(NC(=O)c2ccc(-c3ccccc3)cc2F)ccc2cc(CN3CCCCC3)cnc12 (hydrate or solvate)")
"187 to 188 °C"
>>> recorded_measurement("CCc1ccc(-c2ccc(C(=O)Nc3cc4ncc(CN5CCCC5)cc4cc3C)cc2)cc1")
"188 °C"
>>> recorded_measurement("O=C(Nc1ccc2cc(CN3CCCC3)cnc2c1)c1ccc(-c2ccc(Cl)cc2)nc1")
"223 to 225 °C"
>>> recorded_measurement("Cc1c(NC(=O)c2ccc(-c3ccc(OC(F)(F)F)cc3)cc2F)ccc2cc(CN3CCCC3)cnc12")
"175 to 178 °C"
>>> recorded_measurement("Cc1cc(C(=O)Nc2ccc3cc(CN4CCCC4)cnc3c2C)ccc1-c1ccc(F)cc1")
"200 to 202 °C"
>>> recorded_measurement("CCN(CC)C(=O)CC1CCN(Cc2cnc3c(C)c(NC(=O)c4ccc(-c5ccc(F)cc5)cc4)ccc3c2)CC1")
"158 to 160 °C"
>>> recorded_measurement("Cc1cc2cc(CN3CCC(CCC(=O)N4CCCCC4)CC3)cnc2cc1NC(=O)c1ccc(-c2ccc(F)cc2)cc1")
"189 to 191 °C"
>>> recorded_measurement("Cc1c(NC(=O)c2ccc(-c3ccc(F)cc3)cc2)ccc2cc(CN3CCC(CC(N)=O)CC3)cnc12")
"258 to 260 °C"
>>> recorded_measurement("Cc1c(NC(=O)c2ccc(-c3ccc(F)cc3)cc2)ccc2cc(CN3CCC(CC(=O)N4CCCCC4)CC3)cnc12")
"189 to 190 °C"
>>> recorded_measurement("CC(=O)NC1CCN(Cc2cnc3cc(NC(=O)c4ccc(-c5ccc(F)cc5)cc4)ccc3c2)C1 (stereo not shown)")
"250 to 253 °C"
>>> recorded_measurement("O=C(Nc1cc2ncc(CN3CCCC3)cc2cc1N1CCCC1)c1ccc(Br)cc1")
"171 to 173 °C"
>>> recorded_measurement("O=C(Nc1cc2ncc(CN3CCCC3)cc2cc1Cl)c1ccc(-c2cc3ccccc3o2)cc1")
"209 °C"
>>> recorded_measurement("Cc1c(NC(=O)c2ccc(-c3ccc(C(F)(F)F)cc3)cc2F)ccc2cc(CN3CCCC3)cnc12 (hydrate or solvate)")
"202 to 203 °C"
>>> recorded_measurement("Cc1cc2cc(CN3CCCC3)cnc2cc1NC(=O)c1ccc(-c2ccc3ccccc3c2)cc1")
"194 °C"
>>> recorded_measurement("Cc1c(NC(=O)c2ccc(-c3ccc(F)cc3)c(F)c2)ccc2cc(CN3CCCCC3)cnc12 (hydrate or solvate)")
"161 to 162 °C"
>>> recorded_measurement("O=C(Nc1ccc2cc(CN3CCCC3)cnc2c1)N1CCC(c2ccccc2)CC1")
"222 to 224 °C"
>>> recorded_measurement("Cc1c(NC(=O)c2ccc(-c3cc4ccccc4o3)cc2)ccc2cc(CN3CCCC3)cnc12 (hydrate or solvate)")
"217 to 218 °C"
>>> recorded_measurement("O=C(Nc1ccc2cc(CN3CCCC3)cnc2c1)c1ccc(-c2ccccc2)nc1")
"208 to 210 °C"
>>> recorded_measurement("O=C(Nc1ccc2cc(CN3CCCC3)cnc2c1)c1ccc(-c2ccc(F)cc2)cc1F")
"177 °C"
>>> recorded_measurement("CCN(CC)C(=O)CCCC1CCN(Cc2cnc3c(C)c(NC(=O)c4ccc(-c5ccc(F)cc5)cc4)ccc3c2)CC1")
"145 to 146 °C"
>>> recorded_measurement("COc1ccc(-c2ccc(C(=O)Nc3ccc4cc(CN5CCCC5)cnc4c3F)cc2)cc1")
"217 to 220 °C"
>>> recorded_measurement("O=C(Nc1ccc2cc(CN3CCCC3)cnc2c1F)c1ccc(-c2ccc(Cl)cc2)cc1F")
"208 °C"
>>> recorded_measurement("O=C(Nc1ccc2cc(CN3CCCC3)cnc2c1F)c1ccc(-c2ccc(Cl)cc2)cc1")
"206 to 208 °C"
>>> recorded_measurement("COc1ccc(-c2ccc(C(=O)Nc3ccc4cc(CN5CCCC5)cnc4c3F)c(F)c2)cc1")
"182 to 183 °C"
>>> recorded_measurement("COc1ccc(-c2ccc(C(=O)Nc3ccc4cc(CN5CCCCCC5)cnc4c3)cc2)cc1")
"212 °C (dec.)"
>>> recorded_measurement("Cc1c(NC(=O)c2ccc(-c3ccc(F)cc3)cc2F)ccc2cc(CN3CCCCC3)cnc12")
"186 to 187 °C"
>>> recorded_measurement("CCCC(=O)Oc1ccc(C(=O)Nc2ccc3cc(CN4CCCC4)cnc3c2C)cc1")
"156 to 158 °C"
>>> recorded_measurement("Cc1ccc(-c2ccc(C(=O)Nc3ccc4cc(CN5CCCC5)cnc4c3C)cc2F)cc1")
"193 to 194 °C"
>>> recorded_measurement("Cc1c(NC(=O)c2ccc(-c3ccc(Cl)s3)cc2)ccc2cc(CN3CCCC3)cnc12")
"210 to 211 °C"
>>> recorded_measurement("Cc1c(NC(=O)c2ccc(-c3ccc(F)cc3)cc2)ccc2cc(CN3CCOCC3)cnc12")
"176 to 178 °C"
>>> recorded_measurement("Cc1c(NC(=O)c2ccc(-c3ccccc3)c(F)c2)ccc2cc(CN3CCCCCC3)cnc12 (hydrate or solvate)")
"129 to 130 °C"
